- testedOn: serotoninergic 5-HT6 receptor (Homo sapiens, UniProt P50406)
- Sequence (P50406 whole entry): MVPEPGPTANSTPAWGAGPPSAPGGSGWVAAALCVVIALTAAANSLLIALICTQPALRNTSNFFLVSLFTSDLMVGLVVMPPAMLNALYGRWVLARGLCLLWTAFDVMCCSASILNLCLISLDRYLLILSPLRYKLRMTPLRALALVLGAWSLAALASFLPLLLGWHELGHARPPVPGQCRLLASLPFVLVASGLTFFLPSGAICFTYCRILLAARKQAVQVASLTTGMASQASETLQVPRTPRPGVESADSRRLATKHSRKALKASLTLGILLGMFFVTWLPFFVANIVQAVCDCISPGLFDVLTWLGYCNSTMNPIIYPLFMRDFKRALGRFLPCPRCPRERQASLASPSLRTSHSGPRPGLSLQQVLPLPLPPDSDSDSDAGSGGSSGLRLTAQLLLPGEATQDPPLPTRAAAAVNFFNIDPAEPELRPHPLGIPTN
- testDetails: Binding assay 5-HT6 (h), [3H]LSD, CHO cells
- Set-up: expressed in transfected cells; host or cells: CHO cells
- setupConditions: read-out: 5-HT6
Measured inhibition at 1 µM accompanies every entry in the list below.

{"columns": ["structureSmiles", "measurementUnit", "inhibition at 1 µM"],
 "data": [
  ["O=S(=O)(NCCCCN1CCC(c2noc3cc(F)ccc23)CC1)c1cccc(Cl)c1", "%", 87],
  ["O=S(=O)(NCCCN1CCC(c2noc3cc(F)ccc23)CC1)c1ccsc1", "%", 72],
  ["O=S(=O)(NCCCCN1CCN(c2cccc3[nH]ccc23)CC1)c1ccc2cc(Cl)ccc2c1", "%", 70],
  ["Cc1cc(S(=O)(=O)NCCCN2CCC(c3noc4cc(F)ccc34)CC2)c(C)s1", "%", 100]
]}

* * *

Measured inhibition at 1 µM accompanies every entry in the list below.
- testedOn: serotoninergic 5-HT1A receptor (Homo sapiens, UniProt P08908)
- Sequence (P08908 whole entry): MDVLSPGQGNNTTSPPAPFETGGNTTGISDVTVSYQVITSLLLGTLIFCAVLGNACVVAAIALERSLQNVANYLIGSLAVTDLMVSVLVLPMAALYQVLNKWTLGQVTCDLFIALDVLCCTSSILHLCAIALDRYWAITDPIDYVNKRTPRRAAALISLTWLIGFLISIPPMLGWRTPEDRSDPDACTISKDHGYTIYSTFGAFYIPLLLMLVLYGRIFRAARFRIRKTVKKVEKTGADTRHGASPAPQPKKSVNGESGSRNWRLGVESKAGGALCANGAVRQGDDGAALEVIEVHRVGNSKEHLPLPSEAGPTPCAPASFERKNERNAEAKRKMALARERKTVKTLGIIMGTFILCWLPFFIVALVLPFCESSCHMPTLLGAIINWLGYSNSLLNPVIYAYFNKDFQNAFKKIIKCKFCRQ
- testDetails: Binding assay 5-HT1A (h), [3H]8-OH-DPAT, HEK-293 cells
- Design: expressed in transfected cells; host or cells: HEK-293 cells
- setupConditions: read-out: 5-HT1A

{"columns": ["molecule", "measurementUnit", "inhibition at 1 µM"],
 "data": [
  ["O=S(=O)(NCCCCN1CCN(c2cccc3[nH]ccc23)CC1)c1cnc2ccccn12 [Compound 30]", "%", 100],
  ["O=S(=O)(NCCCCN1CCN(c2nsc3ccccc23)CC1)c1cccc(Cl)c1 [Compound 69]", "%", 80],
  ["O=S(=O)(NCCCN1CCN(c2cccc3c2OCCO3)CC1)c1ccc(F)cc1 [Compound 408]", "%", 101],
  ["O=S(=O)(NCCCCN1CCN(c2cccc3[nH]ccc23)CC1)c1cc2ccccc2s1 [Compound 33]", "%", 100],
  ["O=S(=O)(NCCCN1CCN(c2nsc3ccccc23)CC1)c1ccc2cn[nH]c2c1 [Compound 268]", "%", 98],
  ["N#Cc1cccc(S(=O)(=O)NCCCCN2CCN(c3nsc4ccccc34)CC2)c1 [Compound 73]", "%", 92],
  ["O=S(=O)(NCCCN1CCC(c2noc3cc(F)ccc23)CC1)c1ccsc1 [Compound 340]", "%", 45],
  ["Cc1c(S(=O)(=O)NCCCCN2CCN(c3noc4ccccc34)CC2)sc2ccc(F)cc12 [Compound 81]", "%", 92],
  ["O=S(=O)(NCCCCN1CCC(c2noc3cc(F)ccc23)CC1)c1csc2ccccc12 [Compound 313]", "%", 72],
  ["O=S(=O)(NCCCN1CCC(c2noc3cc(F)ccc23)CC1)c1cccc(Cl)c1 [Compound 106]", "%", 63],
  ["Cc1cccc(S(=O)(=O)NCCCN2CCN(c3cccc4c3OCCO4)CC2)c1 [Compound 414]", "%", 98],
  ["O=S(=O)(NCCCCN1CCN(c2cccc3c2OCCO3)CC1)c1ccc(F)c(F)c1 [Compound 389]", "%", 118],
  ["O=S(=O)(NCCCCN1CCC(c2noc3cc(F)ccc23)CC1)c1cccs1 [Compound 325]", "%", 62],
  ["O=S(=O)(NCCCCN1CCN(c2noc3ccccc23)CC1)c1cccc(C(F)(F)F)c1 [Compound 91]", "%", 40],
  ["O=S(=O)(NCCCCN1CCC(c2noc3cc(F)ccc23)CC1)c1ccc(F)c(F)c1 [Compound 295]", "%", 68],
  ["O=S(=O)(NCCCN1CCN(c2nsc3ccccc23)CC1)c1cccc(F)c1 [Compound 72]", "%", 95],
  ["CC(C)(C)c1ccc(S(=O)(=O)NCCCN2CCN(c3nsc4ccccc34)CC2)cc1 [Compound 256]", "%", 96],
  ["O=S(=O)(NCCCCN1CCN(c2cccc3c2OCCO3)CC1)c1ccc(F)c(Cl)c1 [Compound 392]", "%", 100],
  ["Cc1c(S(=O)(=O)NCCCCN2CCN(c3cccc4[nH]ccc34)CC2)sc2ccc(F)cc12 [Compound 364]", "%", 92],
  ["O=S(=O)(NCCCCN1CCN(c2nsc3ccccc23)CC1)c1cccc(O)c1 [Compound 231]", "%", 97],
  ["O=S(=O)(NCCCCN1CCC(c2noc3cc(F)ccc23)CC1)c1cccc(Cl)c1 [Compound 105]", "%", 41],
  ["O=S(=O)(NCCCCN1CCN(c2nsc3ccccc23)CC1)c1ccc2ccccc2c1 [Compound 2]", "%", 99],
  ["Cc1[nH]c2ccc(Cl)cc2c1C1=CCN(CCCCNS(=O)(=O)c2cccc3ccccc23)CC1 [Compound 366]", "%", 34],
  ["O=S(=O)(NCCCN1CCN(c2nsc3ccccc23)CC1)c1ccc(F)c(F)c1 [Compound 249]", "%", 100],
  ["O=S(=O)(NCCCCN1CCN(c2nsc3ccccc23)CC1)c1cc2ccc(Cl)cc2s1 [Compound 241]", "%", 98],
  ["O=S(=O)(NCCCCN1CCC(c2noc3cc(F)ccc23)CC1)c1cccc(Br)c1 [Compound 109]", "%", 86],
  ["O=S(=O)(NCCCN1CCN(c2nsc3ccccc23)CC1)c1ccc(Cl)s1 [Compound 196]", "%", 99],
  ["O=S(=O)(NCCCN1CCN(c2nsc3ccccc23)CC1)c1cccc(C(F)(F)F)c1 [Compound 258]", "%", 100],
  ["O=S(=O)(NCCCCN1CCN(c2cccc3c2OCCO3)CC1)c1cccc2ccccc12 [Compound 385]", "%", 103],
  ["O=S(=O)(NCCCN1CCN(c2nsc3ccccc23)CC1)c1csc2ccccc12 [Compound 263]", "%", 98],
  ["O=S(=O)(NCCCN1CCC(c2noc3cc(F)ccc23)CC1)c1ccc(F)c(F)c1 [Compound 327]", "%", 67],
  ["Cc1cccc(S(=O)(=O)NCCN2CCC(c3noc4cc(F)ccc34)CC2)c1 [Compound 25]", "%", 92],
  ["O=c1[nH]c2ccc(S(=O)(=O)NCCCCN3CCN(c4nsc5ccccc45)CC3)cc2o1 [Compound 4]", "%", 99]
]}
